- subject_of_test: PI3Kδ (p110δ/p85α) Recombinant Human Protein (Homo sapiens (Human))
- Sequence (O00329 whole entry): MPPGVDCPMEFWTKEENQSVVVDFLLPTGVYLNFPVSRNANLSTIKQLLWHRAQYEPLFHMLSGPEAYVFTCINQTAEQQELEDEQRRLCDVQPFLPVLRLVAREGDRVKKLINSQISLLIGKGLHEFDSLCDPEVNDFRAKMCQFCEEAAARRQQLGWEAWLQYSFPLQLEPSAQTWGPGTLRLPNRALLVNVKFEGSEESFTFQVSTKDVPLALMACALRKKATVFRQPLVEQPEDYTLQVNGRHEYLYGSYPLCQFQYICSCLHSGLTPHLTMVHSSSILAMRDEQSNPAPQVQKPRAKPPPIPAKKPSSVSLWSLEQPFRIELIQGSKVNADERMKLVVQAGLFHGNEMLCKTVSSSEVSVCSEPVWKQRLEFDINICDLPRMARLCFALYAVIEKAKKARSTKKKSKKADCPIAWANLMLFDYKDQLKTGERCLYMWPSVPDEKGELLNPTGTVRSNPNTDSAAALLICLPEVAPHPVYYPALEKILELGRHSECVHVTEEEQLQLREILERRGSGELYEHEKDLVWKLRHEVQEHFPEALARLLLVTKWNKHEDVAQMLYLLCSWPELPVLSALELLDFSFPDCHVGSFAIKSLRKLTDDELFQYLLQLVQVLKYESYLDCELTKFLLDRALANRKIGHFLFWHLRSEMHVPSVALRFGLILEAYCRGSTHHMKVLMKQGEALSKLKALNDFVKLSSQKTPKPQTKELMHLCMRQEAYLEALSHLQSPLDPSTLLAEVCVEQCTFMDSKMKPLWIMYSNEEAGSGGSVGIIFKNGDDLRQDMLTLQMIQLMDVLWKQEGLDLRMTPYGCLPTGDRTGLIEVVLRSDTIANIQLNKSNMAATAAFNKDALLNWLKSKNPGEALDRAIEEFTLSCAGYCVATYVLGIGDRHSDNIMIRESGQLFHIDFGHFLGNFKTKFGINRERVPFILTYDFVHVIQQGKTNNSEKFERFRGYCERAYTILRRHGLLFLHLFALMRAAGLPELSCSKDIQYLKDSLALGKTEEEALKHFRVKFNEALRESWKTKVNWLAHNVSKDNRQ
- Sequence (P27986 whole entry partner): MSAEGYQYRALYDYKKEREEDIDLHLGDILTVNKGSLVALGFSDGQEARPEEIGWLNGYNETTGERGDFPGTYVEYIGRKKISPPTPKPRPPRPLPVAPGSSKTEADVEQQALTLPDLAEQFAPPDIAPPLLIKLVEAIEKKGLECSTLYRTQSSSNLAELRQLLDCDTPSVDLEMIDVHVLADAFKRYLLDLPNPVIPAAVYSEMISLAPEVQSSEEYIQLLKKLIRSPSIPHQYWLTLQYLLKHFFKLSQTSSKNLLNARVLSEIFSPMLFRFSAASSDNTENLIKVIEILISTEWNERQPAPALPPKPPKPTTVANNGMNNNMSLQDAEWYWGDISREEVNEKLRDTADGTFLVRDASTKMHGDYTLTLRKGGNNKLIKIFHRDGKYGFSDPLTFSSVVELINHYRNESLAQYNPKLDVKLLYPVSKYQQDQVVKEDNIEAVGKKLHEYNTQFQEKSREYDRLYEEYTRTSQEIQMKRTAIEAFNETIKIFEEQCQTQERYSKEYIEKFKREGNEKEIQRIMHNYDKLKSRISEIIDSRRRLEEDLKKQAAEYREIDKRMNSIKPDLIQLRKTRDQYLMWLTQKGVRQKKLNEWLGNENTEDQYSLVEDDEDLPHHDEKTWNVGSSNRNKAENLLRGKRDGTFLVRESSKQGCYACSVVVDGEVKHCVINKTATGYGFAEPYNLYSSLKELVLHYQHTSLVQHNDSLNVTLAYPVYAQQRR
- protocol_text: PI3Kδ Scintillation Proximity Assay
Structures can show the parent of a compound that is named as a salt.
assay_metric: IC50

* Cc1c(F)cc(S(=O)(=O)NC23CCC(CO)(CC2)OC3)cc1-c1cnc2c(N)ncnn12 [Example 375, trifluoroacetate salt] | 100 to 500 nM

Suppose we examine the compound [2H][C@]1(NS(=O)(=O)c2ccc(C)c(-c3cnc4c(N)ncnn34)c2)CC[C@@](C)(O)CC1 ; what IC50 value has been reported? 100 to 500 nM

Suppose we examine the compound Cc1ccc(S(=O)(=O)N[C@H]2CC[C@H](O)CC2)cc1-c1cnc2c(N)cccn12 [Example 1, trifluoroacetate] ; what IC50 value has been reported? 500 to 2000 nM

Suppose we examine the compound Cc1nc(N)c2ncc(-c3cc(S(=O)(=O)NC45CCC(O)(CC4)C5)ccc3C)n2n1 [Example 443, trifluoroacetate salt] ; what IC50 value has been reported? < 100 nM

Suppose we examine the compound Cc1ccc(S(=O)(=O)N[C@H]2CC[C@H](O)CC2)cc1-c1cnc2c(N)nc(-c3ccccc3)cn12 ; what IC50 value has been reported? < 100 nM

Suppose we examine the compound Cc1ccc(S(=O)(=O)N[C@H]2CC[C@H](CF)OC2)cc1-c1cnc2c(N)ncnn12 ; what IC50 value has been reported? 100 to 500 nM

Suppose we examine the compound Cc1nc(N)c2ncc(-c3cc(S(=O)(=O)NCC(C)(C)O)c(Cl)cc3C)n2n1 [Example 403, trifluoroacetate salt] ; what IC50 value has been reported? 100 to 500 nM
